Test system: NCI-H522
test: NCI tumour cell line growth inhibition, 48 h
Calls of active or inactive are those of the source. Cut-off read from the data, not from the text of the source: active = GI50 up to about 1.1 µM and inactive = higher.
Log the outcome using a class from t (active), f (inactive)

> print(dat)
                                   compound  group
1  Nc1nc2[nH]cc(CCc3ccc(C(=O)N[C@@H](CCC(=O)O)C(=O)O)cc3)c2c(=O)[nH]1      f

Q: Could you check what this test reported for CC1(C)O[C@@H](CP(c2cccc3ccccc23)c2cccc3ccccc23)[C@H](CP(c2cccc3ccccc23)c2cccc3ccccc23)O1 ?
A: f

Q: Could you check what this test reported for CNc1ncnc2c1nc(NC1CCCC1)n2C1OC(CO)C(O)C1O (stereo not drawn) ?
A: f

----------
Tested on: HOP-62
test: NCI tumour cell line growth inhibition, 48 h
Active and inactive are the calls of the source. Cut-off read from the data, not from the text of the source: active = GI50 up to about 1.1 µM and inactive = higher.
Log the outcome using a class from active, inactive

Example cases with answers are listed next.
compound	group
CCCCCCCCCC[C@@H](O)[C@@H]1CC[C@@H]([C@@H]2CC[C@@H]([C@@H](O)CCCCCCCCCC[C@H](O)CC3=CC(C)OC3=O)O2)O1 (stereo partly drawn)	inactive
CN(C)C(=O)C(F)(F)C(c1ccc(F)cc1)C1C(=O)N(C)C(=O)N(C)C1=O (stereo not drawn)	inactive
C[C@]12CC[C@H]3[C@@H](CC=C4C[C@@H](O)CC[C@@]43C)[C@@H]1C/C(=C/c1ccccc1)[C@@H]2O	inactive
Cn1c(=O)c2c3ccccc3c(C(=O)c3ccccc3)n2c2ccccc21	inactive
Nc1nc2[nH]cc(CCc3ccc(C(=O)N[C@@H](CCC(=O)O)C(=O)O)cc3)c2c(=O)[nH]1	inactive

Q: Could you check what this test reported for N#Cc1cccc(Nc2ccccc2SSc2ccccc2Nc2cccc(C#N)c2)c1 ?
A: inactive

Q: Could you check what this test reported for Oc1cc(-c2cccc(Cl)c2)nc2cc3c(cc12)OCO3 ?
A: active

Q: Could you check what this test reported for CC1OC(OC2C(OC(=O)[C@]34CCC(C)(C)C[C@H]3C3=CC[C@@H]5[C@@]6(C)CC[C@H](OC7OC(C(=O)O)C(O)C(O)C7O)C(C)(C)[C@@H]6CC[C@@]5(C)[C@]3(C)C[C@H]4O)OCC(O)C2O)C(O)C(OC2OCC(O)(CO)C2O)C1OC1OCC(O)C(O)C1O (stereo partly drawn) ?
A: inactive

----------
Exercise: state measured GI50 for each of the compounds provided.
System: NCI-H460
test: NCI tumour cell line growth inhibition, 48 h
Active and inactive are the calls of the source. Rule as the data show it: active = GI50 up to about 1.1 µM and inactive = higher.

Answered examples (3):
> print(dat)
                                   compound               result
1  CSC(=N)N1N=C2c3ccccc3CC[C@@H]2[C@@H]1c1ccccc1   13.2 µM (inactive)
2  C=CCn1c(-c2ccc(-c3cs/c(=N\N=O)n3CC=C)cc2)cs/c1=N\N=O  > 100 µM (inactive)
3  C=CC(Br)(CBr)CCC(Br)C(C)(C)Br (centres undefined)   10.4 µM (inactive)

Provide the reported GI50 of each entry below, same order.
1. Cc1ccc(S(=O)(=O)NC(=O)C2=C3SCCN3C(=O)N(S(=O)(=O)c3ccc(C)cc3)C2c2ccccc2)cc1 (centres undefined)
2. O=C1c2ccccc2N1C(=O)c1ccccc1[N+](=O)[O-]
3. COc1ccc2[nH]c(Cl)c(/C=C3/C(=O)N(c4ccccc4)c4ccccc43)c2c1
4. COc1cc(-c2cc(=O)c3ccccc3o2)ccc1N
5. COc1cc2c(cc1OC)C(=O)N(c1ccc(OCCN3CCCC3)cc1)C2=O

A:
1. 71.1 µM (inactive)
2. > 100 µM (inactive)
3. 3.55 µM (inactive)
4. 37.2 µM (inactive)
5. > 100 µM (inactive)

Q: Supply recorded GI50 for CC1(OCc2ccccc2)C(=O)N2C1N(C(=O)OCc1ccccc1)CC2(C)C (centres undefined) here.
A: 42.6 µM (inactive)

----------
Test system: PC-3
test: NCI tumour cell line growth inhibition, 48 h
Activity calls are given as the source filed them. Rule as the data show it: active = GI50 up to about 1.1 µM and inactive = higher.
Log the outcome using a class from yes (1) (active), no (0) (inactive)

Example cases with answers are listed next.
> print(dat)
                                   compound  measured.target   group
1  CC(C)(C)OC(=O)NC(Cc1ccccc1)NC(=O)NC(=O)OCc1ccccc1 (stereo not drawn)             PC-3  no (0)
2  Cc1ccc(S(=O)(=O)[C@@H](Cl)[C@H]2N=C(Cl)NN=C2c2ccccc2)cc1             PC-3  no (0)

Q: Could you check what this test reported for CC(C)C(=O)C(C)(C)CCc1ccccn1 ?
A: no (0)

Q: Could you check what this test reported for CCCCCCOc1ccc(NC2=C(Cl)C(=O)c3cccnc3C2=O)cc1 ?
A: no (0)

Q: Could you check what this test reported for C=CCN1CC2CN=NC2(C#N)C1 (stereo not drawn) ?
A: no (0)

Q: Could you check what this test reported for CC1=CC2=C(C#N)C(=O)OC2(C)C(c2ccccc2)C1 (stereo not drawn) ?
A: no (0)

Q: Could you check what this test reported for CC(=O)NNC1=NN(C(C)=O)C2(S1)C(=O)Nc1ccccc12 (stereo not drawn) ?
A: no (0)

Q: Could you check what this test reported for COc1c(C)c(C/C=C(\C)CCCC(C)CCCC(C)CCCC(C)C)c(OC)c2ccccc12 (stereo not drawn) ?
A: no (0)

----------
Exercise: state measured GI50 for each of the molecules provided.
Tested on: HT-29
test: NCI tumour cell line growth inhibition, 48 h
Activity calls are given as the source filed them. No stated cut-off is given here; in the data, active = GI50 up to about 1.1 µM and inactive = higher.

Answered examples (3):
> print(dat)
                                   molecule               result
1  O=C1c2ccccc2C(=O)c2c1nc1ccccc1c2-c1cncc(-c2c3c(nc4ccccc24)C(=O)c2ccccc2C3=O)c1   8.49 µM (inactive)
2  C1=CC(=P(c2ccccc2)(c2ccccc2)c2ccccc2)C=C1   10.6 µM (inactive)
3     CS(=O)(=O)C1(Br)S(=O)(=O)OCCOS1(=O)=O  > 100 µM (inactive)

Provide the reported GI50 of each entry below, same order.
1. c1ccc2c(c1)N=C(c1cccc3ccccc13)CC(c1ccc3c(c1)OCO3)S2 (configuration not stated)
2. O=C(NNc1cn[nH]c(=O)c1Cl)/C(=C/c1ccc2c(c1)OCO2)NC(=O)c1ccccc1
3. CCOC(=O)C1CCC/C1=N\NC(=N)N.Cc1cc(O)c(C(C)C)cc1S(=O)(=O)O (configuration not stated)

A:
1: > 100 µM (inactive); 2: 41.5 µM (inactive); 3: > 100 µM (inactive)

----------
Test system: OVCAR-3
test: NCI tumour cell line growth inhibition, 48 h
Active and inactive are the calls of the source. No stated cut-off is given here; in the data, active = GI50 up to about 1.1 µM and inactive = higher.
Exercise: state measured GI50 for each of the compounds provided.

Answered examples (2):
> print(dat)
                                   compound               result
1               COCCOCOc1ccc(OCc2ccccc2)cc1  > 100 µM (inactive)
2  O=C(CSCC(=O)N/N=C/c1cccc(OCc2ccccc2)c1)N/N=C/c1cccc(OCc2ccccc2)c1   39.5 µM (inactive)

Consider the additional compound presented here.
Q: Supply recorded GI50 for CCOC(=O)C1CCC/C1=N\NC(=N)N.Cc1cc(O)c(C(C)C)cc1S(=O)(=O)O (stereo not drawn) here.
A: > 100 µM (inactive)

----------
Test system: K562
test: NCI tumour cell line growth inhibition, 48 h
Calls of active or inactive are those of the source. No stated cut-off is given here; in the data, active = GI50 up to about 1.1 µM and inactive = higher.
Exercise: state measured GI50 for each of the molecules provided.

> print(dat)
                                   molecule               result
1  Cc1cc(O)nc(CNC(=O)c2cccc(C(=O)NCc3cc(O)nc(C)n3)c2)n1  > 100 µM (inactive)
2  C[C@@H]1CCC[C@]2(C)O[C@H]2CC[C@@](C)(O)[C@@H]2CC3=C(CO)C(=O)O[C@H]3[C@H]1O2   > 50 µM (inactive)
3  CC(Br)CN(CC(C)Br)c1ccc2c(c1)Cc1ccccc1-2 (centres undefined)   5.92 µM (inactive)
4           N=C1C=C(N)C(=O)c2[nH]c(=O)ccc21   1.91 µM (inactive)

Provide the reported GI50 of each entry below, same order.
1. c1cncc(CSc2nc3ccccc3nc2-c2cccs2)c1
2. OC(COc1ccccc1)CN1CCCCC1 (centres undefined)
3. COc1c(C)c(C/C=C(\C)CCCC(C)CCCC(C)CCCC(C)C)c(OC)c2ccccc12 (centres undefined)
4. S=C(S)NCNC(=S)S
5. CC(C)NC(=O)OCc1c(COC(=O)NC(C)C)n(C)c2c1ccc1cc(Cl)c(Cl)cc12
6. COc1cc2c3c4[n+](cc2c(OC)c1OC)CCC4CCC3 (centres undefined)

A:
1: 39.8 µM (inactive); 2: > 100 µM (inactive); 3: > 100 µM (inactive); 4: > 100 µM (inactive); 5: 4.44 µM (inactive); 6: 17.9 µM (inactive)

Provide the reported GI50 of each entry below, same order.
1. CC1OC(OCC2COC(O)(Oc3c(-c4ccc(O)c(O)c4)oc4cc(O)cc(O)c4c3=O)C(O)C2O)C(O)C(O)C1O (centres undefined)
2. O=C(O)c1cc2ccccc2c(/N=N/c2ccc(S(=O)(=O)Nc3ccccn3)cc2)c1O
3. CCN(C(=S)N[C@@H](Cc1ccccc1)C(=O)N[C@@H](CC(C)C)C(=O)OC)c1ccccc1
4. CCCN1CC=C(c2cc(C(=O)OCC)[nH]c2-c2cc(C)no2)C1=O

A:
1: > 100 µM (inactive); 2: > 100 µM (inactive); 3: 43.2 µM (inactive); 4: > 100 µM (inactive)

Origin of measurements: ChEMBL document CHEMBL1201862
